experimental protocol: protein stability index of a GFP-peptide fusion (yeast GPS) (PSI 1-4); higher = more stable; sorted into four equal gates, so the index is relative within each strain
protocol conditions: san1∆
measure name: protein stability index

{"columns": ["chain", "measure name", "experimental value"],
 "data": [
  ["LCDLFVNGSITDQLIQN [NUT1]", "protein stability index", 1.76],
  ["TMQPPYIQERLKSLNDI [MED11]", "protein stability index", 3.13],
  ["IYPRTVIDIEIHVLEQD [SKI6]", "protein stability index", 1.6],
  ["LHKLQRMRLRALETENM [GRR1]", "protein stability index", 1.47],
  ["STNESNKSISDEITEDM [SSN2]", "protein stability index", 2.8],
  ["YSIEMKPYSGKLLKVCL [ECM29]", "protein stability index", 2.51],
  ["AQFTFGKAATAKETHTK [YOR098C/NUP1]", "protein stability index", 2.84]
]}
